Origin of the recorded values: the Human Domainome abundance scans (Beltran et al. 2025)

Readings of abundance fitness for the listed variants
B1: Homeobox protein cut-like 2, residues 895 to 963; numbered along this chain, O14529 (parent)
chain: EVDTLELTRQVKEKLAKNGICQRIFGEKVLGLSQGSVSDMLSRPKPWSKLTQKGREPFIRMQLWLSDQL

variants of: B1; assay: abundance fitness (aPCA) (normalised: wild type 0, dead -1); higher = more abundant; growth selection in yeast, the domain comes from the species named; details: Homo sapiens
// no unit string in output, number only

Illustrative cases are given below, each with its answer.
>>> print(df.to_string())
                         biopolymersequence  reportedvalue
0  EVDTLELTRQVKEKLAKNGICQRIFGEKVLGLSQGSVSDMLSRPKPWSKLTQKGREPFIRMQLWLSDEL [Q68E]         -0.014
1  EVDTLETTRQVKEKLAKNGICQRIFGEKVLGLSQGSVSDMLSRPKPWSKLTQKGREPFIRMQLWLSDQL [L7T]         -0.077

# return recorded abundance fitness for entry EVDTLELTRQVKEKLAKNGICQRIFGEKVLGLSQGSVSDMLSRPKPWSKLTQKGREPFIRMQLWLSDQH [L69H]
-0.182

# return recorded abundance fitness for entry EVDTLELTRQVKEKLAKNGICSRIFGEKVLGLSQGSVSDMLSRPKPWSKLTQKGREPFIRMQLWLSDQL [Q22S]
-0.089
